Taken from ChEMBL document CHEMBL3392957.

Experiment: Elimination half life in Sprague-Dawley rat at 2.0 mg/kg, iv as solution in 5% glucose and 10% DMSO
Conditions: in vivo, read-out: beta t1/2 (converted)
READOUT_TYPE: half-life
// return the numeric value with its unit appended

Query: Note half-life for the compound shown: O=C(c1ccc(F)cc1)N1CCN2C(=O)c3cc[n+]([O-])cc3C12c1ccc(Cl)cc1 (racemic)
Result: 6.5 h

====

Assay: Kinetic solubility of the compound at pH 2 by nephelometry
Type: physicochemical
Conditions: buffer, read-out: Kinetic_solubility
READOUT_TYPE: solubility kinetic (µg/mL)
Value expressed in µg/mL; do not type the unit.

Solved entries:
[[record]]
molecule = "O=C(c1ccc(F)cc1)N1CCN2C(=O)c3ccncc3C12c1ccc(Cl)cc1 (racemic)"
reading = 25

[[record]]
molecule = "O=C(c1ccc(F)cc1)N1CCN2C(=O)c3ccccc3C12c1ccc(Cl)cc1 (racemic)"
reading = 6.3


// switching to the query molecule
Query: Note solubility kinetic for the molecule shown: O=C(c1ccc(F)cc1)N1CCN2C(=O)c3cc[n+]([O-])cc3C12c1ccc(Cl)cc1 (racemic)
Result: 50

====

Consider the following molecules and their measured CC50 at 120 h readings.
Assay: Cytotoxicity against human Hep2 cells after 5 days by MTT assay
Format: cell-based, HEp-2

Solved entries:
[[record]]
molecule = "CCC(=O)N1CCN2C(=O)c3ccccc3C12c1ccc(Cl)cc1 (racemic)"
reading = "> 20 µM"

[[record]]
molecule = "O=C(c1ccc(F)cc1)N1CCN2C(=O)c3ccncc3C12c1ccc(Cl)cc1 (racemic)"
reading = "> 49 µM"

[[record]]
molecule = "CC(C)CC(=O)N1CCN2C(=O)c3ccccc3C12c1ccc(Cl)cc1 (racemic)"
reading = "> 20 µM"

[[record]]
molecule = "O=C(c1cccc(Cl)n1)N1CCN2C(=O)c3ccccc3C12c1ccc(Cl)cc1 (racemic)"
reading = "> 17 µM"

[[record]]
molecule = "O=C(c1ccc(F)cc1)N1CCN2C(=O)c3ccccc3C12c1ccc(OCC2CC2)cc1 (racemic)"
reading = "> 20 µM"


// switching to the query molecule
Query: Note CC50 at 120 h for the molecule shown: O=C(c1ccc(F)cc1)N1CCN2C(=O)c3ccccc3C12c1ccc(C(F)(F)F)cc1 (racemic)
Result: > 20 µM

====

Assay: Oral bioavailability in Sprague-Dawley rat at 19 mg/kg as suspension with hydroxypropylmethylcellulose
Type: ADME, organism-based
Settings: in vivo
READOUT_TYPE: bioavailability (%)
Value expressed in %; do not type the unit.

Query: Note bioavailability for the compound shown: O=C(c1ccc(F)cc1)N1CCN2C(=O)c3ccncc3C12c1ccc(Cl)cc1 (racemic)
Result: 28

====

Tested on: Respiratory syncytial virus
Test: Antiviral activity against Respiratory syncytial virus B1 infected in human Hep2 cells assessed as inhibition of virus-induced cytopathicity after 5 days by MTT assay
Format: functional, organism-based
Details: B1, HEp-2, 120 h
READOUT_TYPE: EC50 (nM)
Value expressed in nM; do not type the unit.

Solved entries:
[[record]]
molecule = "O=C(c1ccc(F)cc1)N1CCN2C(=O)c3cc[n+]([O-])cc3C12c1ccc(Cl)cc1 (racemic)"
reading = 910

[[record]]
molecule = "O=C(c1ccc(F)cc1)N1CCN2C(=O)c3ccncc3C12c1ccc(Cl)cc1 (racemic)"
reading = 680


// switching to the query molecule
Query: Identify measured EC50 obtained with Respiratory syncytial virus for O=C(c1ccc(F)cc1)N1CCN2C(=O)c3ccccc3C12c1ccc(Cl)cc1 (racemic) .
Result: 750

====

Assay: Total clearance in Sprague-Dawley rat at 2.0 mg/kg, iv in 0.1 M capsitol and 10 to 12.5 % DMSO
Details: in vivo
READOUT_TYPE: clearance

Query: Note clearance for the molecule shown: O=C(c1ccc(F)cc1)N1CCN2C(=O)c3ccncc3C12c1ccc(Cl)cc1 (racemic)
Result: 2.7 mL/min/kg

====

Test: Kinetic solubility of the compound at pH 6.5 by nephelometry
Format: physicochemical
Details: buffer, read-out: Kinetic_solubility
Consider the following molecules and their measured solubility kinetic readings.
Value expressed in µg/mL; do not type the unit.

Solved entries:
[[record]]
molecule = "O=C(c1ccc(F)cc1)N1CCN2C(=O)c3cc[n+]([O-])cc3C12c1ccc(Cl)cc1 (racemic)"
reading = 25

[[record]]
molecule = "O=C(c1ccc(F)cc1)N1CCN2C(=O)c3ccncc3C12c1ccc(Cl)cc1 (racemic)"
reading = 12.5


Query: Note solubility kinetic for the molecule shown: O=C(c1ccc(F)cc1)N1CCN2C(=O)c3ccccc3C12c1ccc(Cl)cc1 (racemic)
Result: 6.3

====

Assay: Elimination half life in Sprague-Dawley rat at 20 mg/kg, po as suspension with carboxymethylcellulose
Settings: in vivo, read-out: beta t1/2 (converted)
READOUT_TYPE: half-life (h)
Value expressed in h; do not type the unit.

Query: Note half-life for the compound shown: O=C(c1ccc(F)cc1)N1CCN2C(=O)c3cc[n+]([O-])cc3C12c1ccc(Cl)cc1 (racemic)
Result: 5.6

====

Assay: Elimination half life in Sprague-Dawley rat at 2.0 mg/kg, iv in 0.1 M capsitol and 10 to 12.5 % DMSO
Details: in vivo, read-out: beta t1/2
READOUT_TYPE: half-life

Query: Note half-life for the compound shown: O=C(c1ccc(F)cc1)N1CCN2C(=O)c3ccncc3C12c1ccc(Cl)cc1 (racemic)
Result: > 24 h

====

Test: Cmax in Sprague-Dawley rat at 19 mg/kg, po as suspension with hydroxypropylmethylcellulose
Type: ADME, organism-based
Set-up: dose 19 mg/kg, route oral
Settings: in vivo
READOUT_TYPE: Cmax (µM)
Value expressed in µM; do not type the unit.

Query: Note Cmax for the compound shown: O=C(c1ccc(F)cc1)N1CCN2C(=O)c3ccncc3C12c1ccc(Cl)cc1 (racemic)
Result: 6.3

====

Test: Cytotoxicity against human Hep2 cells after 5 days by MTT assay
Type: cell-based, HEp-2
READOUT_TYPE: CC50 at 120 h

[[record]]
molecule = "O=C(Cc1ccc(F)cc1)N1CCN2C(=O)c3ccccc3C12c1ccc(Cl)cc1 (racemic)"
readout_type = "CC50 at 120 h"
reading = "> 20 µM"

[[record]]
molecule = "CCCOc1ccc(C23c4ccccc4C(=O)N2CCN3C(=O)c2ccc(F)cc2)cc1 (racemic)"
readout_type = "CC50 at 120 h"
reading = "> 20 µM"

[[record]]
molecule = "O=C1c2ccccc2C2(c3ccc(Cl)cc3)N1CCN2c1ccccc1 (racemic)"
readout_type = "CC50 at 120 h"
reading = "> 20 µM"

[[record]]
molecule = "O=C(c1ccccc1)N1CCN2C(=O)c3ccccc3C12c1ccc(Cl)cc1 (racemic)"
readout_type = "CC50 at 120 h"
reading = "> 20 µM"

[[record]]
molecule = "O=C(NCc1ccccc1)N1CCN2C(=O)c3ccccc3C12c1ccc(Cl)cc1 (racemic)"
readout_type = "CC50 at 120 h"
reading = "> 20 µM"


Query: Note CC50 at 120 h for the molecule shown: CCc1ccc(C23c4ccccc4C(=O)N2CCN3C(=O)c2ccc(F)cc2)cc1 (racemic)
Result: > 18 µM

====

Assay: Cytotoxicity against human Hep2 cells after 5 days by MTT assay
Type: cell-based, HEp-2
READOUT_TYPE: CC50 at 120 h

Solved entries:
[[record]]
compound = "CC(C)c1ccc(C23c4ccccc4C(=O)N2CCN3C(=O)c2ccc(F)cc2)cc1 (racemic)"
reading = "> 20 µM"

[[record]]
compound = "CC(=O)COc1ccc(C23c4ccccc4C(=O)N2CCN3C(=O)c2ccc(F)cc2)cc1 (racemic)"
reading = "> 16 µM"

[[record]]
compound = "COCC(=O)N1CCN2C(=O)c3ccccc3C12c1ccc(Cl)cc1 (racemic)"
reading = "> 21 µM"

[[record]]
compound = "COCCOc1cccc(C23c4ccccc4C(=O)N2CCN3C(=O)c2ccc(F)cc2)c1 (racemic)"
reading = "> 16 µM"

[[record]]
compound = "Cc1ccc(C23c4ccccc4C(=O)N2CCN3C(=O)c2ccc(F)cc2)cc1 (racemic)"
reading = "> 20 µM"


Query: Note CC50 at 120 h for the compound shown: CC(=O)N1CCN2C(=O)c3ccccc3C12c1ccc(Cl)cc1 (racemic)
Result: > 20 µM

Query: Note CC50 at 120 h for the compound shown: NC(=O)COc1ccc(C23c4ccccc4C(=O)N2CCN3C(=O)c2ccc(F)cc2)cc1 (racemic)
Result: 11 µM
